Tested on: Pseudomonas aeruginosa (ATCC27853)
Assay: Microtitre plate assay, IC90 for bacterial growth
Type: cell-based
Settings: 90% inhibitory concentration for bacterial growth
Experimental: The bacteria used in this study were grown overnight in flasks containing 100 ml Mueller-Hinton Broth (Becton Dickinson—cat. no. 275730) in sterile de-ionized water, with shaking, at 37° C. Stocks (0.5 ml/tube) were stored at 70° C. until use. Bacteria titrations were performed in microtiter plates and colony forming units (CFUs) were determined. In general, an inoculum level of approximately 100 CFUs was used for susceptibility testing. Anti bacterial Susceptibility Testing: IC90 Determination […]
Below, each entry is listed alongside its reported IC90 PAE 27853.
# number only, unit mg/L dropped from output

COc1ccc2nc(OC)c(C(c3ccccc3)C3(c4cccc5ccccc45)CCN(C)CO3)cc2c1 (single isomer, unassigned) [Compound 4]	50.5

IN: Requested read-out: IC90 PAE 27853. Entry: COc1ccc2nc(OC)c(C(c3ccccc3)C3(c4cccc5ccccc45)CCN(C)CO3)cc2c1 (single isomer, unassigned) [Compound 10]
OUT: 12.7

IN: // same read-out, input: COc1nc2ccc(C)cc2cc1C(c1ccccc1)C1(c2cccc3ccccc23)CCN(C)CO1 (single isomer, unassigned)
OUT: 48.9

IN: // same read-out, input: COc1nc2ccc(Br)cc2cc1C(c1ccccc1)C1(c2cccc3ccccc23)CCN(C)CO1 (single isomer, unassigned) [Compound 1]
OUT: 44.0

IN: // same read-out, input: COc1nc2ccc(-c3ccccc3)cc2cc1C(c1ccccc1)C1(c2cccc3ccccc23)CCN(C)CO1 (single isomer, unassigned)
OUT: 55.1

IN: // same read-out, input: COc1nc2ccc(Br)cc2cc1C(c1ccccc1)C1(c2cccc3ccccc23)CC[N+](C)(C)CO1.[I-] (single isomer, unassigned)
OUT: 2.0

IN: // same read-out, input: COc1nc2ccc(Br)cc2cc1C(c1ccc(Cl)cc1)C1(c2cccc3ccccc23)CCN(C)CO1 (single isomer, unassigned)
OUT: 14.8

IN: // same read-out, input: COc1nc2ccc(Cl)cc2cc1C(c1ccccc1)C1(c2cccc3ccccc23)CC[N+](C)(C)CO1.[I-] (single isomer, unassigned)
OUT: 9.3

IN: // same read-out, input: CC[N+]1(C)CCC(c2cccc3ccccc23)(C(c2ccccc2)c2cc3cc(Br)ccc3nc2OC)OC1.[I-] (single isomer, unassigned)
OUT: 4.6

IN: // same read-out, input: COc1nc2ccc(-c3ccco3)cc2cc1C(c1ccccc1)C1(c2cccc3ccccc23)CCN(C)CO1 (single isomer, unassigned)
OUT: 13.6

IN: // same read-out, input: COc1nc2ccc(Br)cc2cc1C(c1ccccc1)C1(c2cccc3ccccc23)CCN(C)CO1 (single isomer, unassigned) [Compound 7]
OUT: 13.9

###

Test system: Staphylococcus aureus (ATCC29213)
Assay: Microtitre plate assay, IC90 for bacterial growth
Type: cell-based
Conditions: 90% inhibitory concentration for bacterial growth, 24 hours at 37° C., resazurin
Below, each entry is listed alongside its reported IC90 STA 29213.
Include the unit right after the number.

IN: Requested read-out: IC90 STA 29213. Entry: COc1nc2ccc(-c3ccccc3)cc2cc1C(c1ccccc1)C1(c2cccc3ccccc23)CCN(C)CO1 (single isomer, unassigned)
OUT: 55.1 µg/mL

IN: // same read-out, input: COc1ccc2nc(OC)c(C(c3ccccc3)C3(c4cccc5ccccc45)CCN(C)CO3)cc2c1 (single isomer, unassigned) [Compound 10]
OUT: 12.7 µg/mL

IN: // same read-out, input: COc1nc2ccc(Br)cc2cc1C(c1ccccc1)C1(c2cccc3ccccc23)CC[N+](C)(C)CO1.[I-] (single isomer, unassigned)
OUT: 1.8 µg/mL

IN: // same read-out, input: COc1nc2ccc(Cl)cc2cc1C(c1ccccc1)C1(c2cccc3ccccc23)CCN(C)CO1 (single isomer, unassigned)
OUT: 12.8 µg/mL

IN: // same read-out, input: COc1nc2ccc(-c3ccco3)cc2cc1C(c1ccccc1)C1(c2cccc3ccccc23)CCN(C)CO1 (single isomer, unassigned)
OUT: 13.6 µg/mL

IN: // same read-out, input: COc1ccc2nc(OC)c(C(c3ccccc3)C3(c4cccc5ccccc45)CCN(C)CO3)cc2c1 (single isomer, unassigned) [Compound 4]
OUT: 50.5 µg/mL
